The reported measurements were obtained from PubChem BioAssay AID2060894.

System: K12877-001-R-J1-PDC complex spheroid viability;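 note: tumour cells co-cultured with HUVEC and mesenchymal stem cells in spheroids; spheroids exposed to agents for one week before readout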
Assay text: Anticancer human tumor K12877-001-R-J1-PDC patient-derived lung adenocarcinoma cell line growth inhibition [RAS]
Recorded conditions: second compound 10 µM; first compound 1 µM; stronger effect = lower value
In this section we review reported viability, T/C values for a set of compounds.

{"Compound": "CC1(O)CCCC1n1c(=O)c(C(F)F)cc2cnc(NC3CCN(S(C)(=O)=O)CC3)nc21 (stereo not drawn) + C#Cc1c(F)ccc2cc(O)cc(-c3ncc4c(N5CC6CCC(C5)N6)nc(OCC56CCCN5CC(F)C6)nc4c3F)c12", "viability, T/C [%]": 76.9}
{"Compound": "CC(=O)OC12COC1CC(O)C1(C)C(=O)C(O)C3=C(C)C(OC(=O)C(O)C(NC(=O)OC(C)(C)C)c4ccccc4)CC(O)(C(OC(=O)c4ccccc4)C21)C3(C)C (stereo not drawn) + C#Cc1c(F)ccc2cc(O)cc(-c3ncc4c(N5CC6CCC(C5)N6)nc(OCC56CCCN5CC(F)C6)nc4c3F)c12", "viability, T/C [%]": 4.11}
{"Compound": "CC(Nc1ccc2c(c1)OCCn1cc(N3C(=O)OCC3C(F)F)nc1-2)C(N)=O (stereo not drawn) + C#Cc1c(F)ccc2cc(O)cc(-c3ncc4c(N5CC6CCC(C5)N6)nc(OCC56CCCN5CC(F)C6)nc4c3F)c12", "viability, T/C [%]": 63}
